Biological target: pooled human IgG (human IgG1,2,3 and 4)
Reported metric: Enzyme Activity Endpoint Assay (purified): IgG (ng/µL)

Protein: PRT-368 (protein) MSQTEDSESLQRLRDIEDFQAEKKDQNVVYTKWLDGVDVKDHDFRKIVDGNIAYYATPLLNGRGWYDINKDFNRDNDKCAAAVAANMFHYWLDRNRDNVDRFLRQNPEKHGIIELPDGQLKLSDFLNTYESDDGYRDKSKLFDFISENFNGPVWTDKLLDNYINGYAYNYKYGRTIEDSTKNTSKINFFKEVFNEKILTNNHSIRNQNEFSVLLIEALYTGKAIGLSYGPAGLRHSLGHIISVWGADLDADGNVVAIYVTDSDDKKLTIGDERVGLKRYKISTDDEGRLRLTAYEETHNTGGQVRGLWTLDTGKQAWADYFDKTEQTGTDQAEQ
Value reported: 0

Protein: PRT-335 (protein) MTITSVWTKGVTPPTPEDFRENNEDVLHAPYVANQGWYDITKTFDGKDNLLCGAATAGNMLHWWFDQNKEEIERYLKKHPEKQKIIFGNQELFDVKAAIDTKDSQTNSKLFDYFRDKAFPGLSARQLGVFPDLVLDMFINGYYLNLGKTQSTDVNRPYQDKDKRGGIFDAVFTRGVQTTLLTARHDLKNKGLNEISDLIKQELTEGKALALSHTYANVRINHVINLWGADFDAEGELIAIYVTDSDANPSIGMKKYFVGRNANGKVAISAKKIEGDNIGAQVLGLFTLSTGQDQWQKLS
Value reported: 74
